Known normalised cell number of a selection of compounds
# Assay Details: differential killing of epithelial or mesenchymal cells, primary screen, imaging, PC-3E GFP, TEM4-18 mCherry, co-culture (AID 1345086);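 also: cells exposed to compound for 72 h before imaging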
# Condition Label: imaging cell counts, measured here: epithelial PC-3E GFP cell survival, at 1 µM
The reply should be a number, written without any unit.

Entry NCC(O)c1ccc(O)c(O)c1 (stereo unspecified) has what normalised cell number?
1.16

Entry CO/N=C(/C(=O)N[C@@H]1C(=O)N2C(C(=O)O)=C(CSc3nc(=O)c(O)nn3C)CS[C@H]12)c1csc(N)n1 has what normalised cell number?
1.02

Entry Cc1oc(=O)c2c(O)cc(O)c(C)c2c1C has what normalised cell number?
1.11

Entry C[C@@H]1Cc2cccc(O)c2C(=O)O1 has what normalised cell number?
0.83

Entry C#C[C@]1(O)CCC2C3CCC4=Cc5oncc5C[C@]4(C)C3CC[C@@]21C (stereo partly specified) has what normalised cell number?
1.19

Entry C#C[C@]1(O)CCC2C3CCc4cc(O)ccc4C3CC[C@@]21C (stereo partly specified) has what normalised cell number?
1.1

Entry COC1O[C@@H]2O[C@]3(C)CC[C@H]4[C@H](C)CC[C@@H]([C@H]1C)[C@@]24OO3 (stereo partly specified) has what normalised cell number?
0.82

Entry CN(C)CCCO[C@H]1[C@@H](C(O)CO)OC2OC(C)(C)O[C@@H]21 (stereo partly specified) has what normalised cell number?
0.98

Entry C=CCOC(=O)N1C(=O)O[C@H]2C(OC(C)=O)C(COC(C)=O)O[C@H](Sc3ccc(C)cc3)[C@H]21 (stereo partly specified) has what normalised cell number?
1.08

---

# Target Desc: Plasmodium falciparum protein kinase 6 (PK6, PF3D7_1337100) (UniProt Q8IDW1)
# Assay Details: PfPK6 kinase inhibitors, biochemical, TCAMS library (AID 1159586)
# Condition Label: recombinant PfPK6, Kinase-Glo ATP depletion luminescence
Measured potencies and affinities stand elsewhere. The source made the active and inactive calls. No rule for the calls is given here.
Property Name: outcome

Observe how each entry below is paired with its result.
{"Molecule": "Cc1cc(OCCCNc2nc(NCCc3ccc(O)cc3)nc(N3CCNCC3)n2)c(Cl)c(C)c1Cl", "Target Desc": "Plasmodium falciparum protein kinase 6 (PK6, PF3D7_1337100) (UniProt Q8IDW1)", "outcome": "inactive"}
{"Molecule": "Cc1onc(-c2c(Cl)cccc2Cl)c1C(=O)NC1=NC(C)(C)ON1c1ccccc1", "Target Desc": "Plasmodium falciparum protein kinase 6 (PK6, PF3D7_1337100) (UniProt Q8IDW1)", "outcome": "inactive"}
{"Molecule": "CCN(CC)CCNC(=O)c1ccc(N=Cc2c(O)[nH]c3ccc(S(=O)(=O)Cc4c(Cl)cccc4Cl)cc23)cc1", "Target Desc": "Plasmodium falciparum protein kinase 6 (PK6, PF3D7_1337100) (UniProt Q8IDW1)", "outcome": "inactive"}
{"Molecule": "CC(CCNc1c2ccccc2nc2ccccc12)N1CCN(C)CC1 (centres undefined)", "Target Desc": "Plasmodium falciparum protein kinase 6 (PK6, PF3D7_1337100) (UniProt Q8IDW1)", "outcome": "inactive"}
{"Molecule": "COc1ccc(O)c(-c2sc(N=C(N)N)nc2-c2ccccc2)c1", "Target Desc": "Plasmodium falciparum protein kinase 6 (PK6, PF3D7_1337100) (UniProt Q8IDW1)", "outcome": "inactive"}
{"Molecule": "CCc1nc(N)nc(N)c1-c1ccc2c(c1)CCCC2", "Target Desc": "Plasmodium falciparum protein kinase 6 (PK6, PF3D7_1337100) (UniProt Q8IDW1)", "outcome": "inactive"}

Entry CCCN(CCC)S(=O)(=O)c1ccc(C(=O)Nc2nc3ccc(-c4cc(=O)[nH]c(Nc5ccccc5Cl)n4)cc3[nH]2)cc1 has what outcome?
inactive

Entry O=C(NCCN1CCCCC1)c1ccc(Nc2nccc(Nc3ccc(Oc4ccccc4)cc3)n2)cc1 has what outcome?
inactive

Entry Cc1[nH]c(C)c(-c2ccc(OCc3ccc(F)cc3)nc2)c(=O)c1Br has what outcome?
inactive

---

# Assay Details: suppressors of polyglutamine aggregation in yeast, 75Q-TubH (AID 1616)
# Condition Label: S. cerevisiae 75Q-TubH polyglutamine aggregation suppression; stronger effect = higher value
Bridge positions count the residues as written; N and C are the ends. Square brackets hold non-standard residues; d marks the D form. Peptide text beside a SMILES is read from it. * marks the point of attachment. ξ: configuration not given here. ξDab(CH2SO3H) = NC(CCNCS(=O)(=O)O)C(=O)O; Heptanoyl(6-Me) = CC(C)CCCCC(=O)*; Dab = NCC[CH](N)C(=O)O
Parameter threshold = 0.7. Response is yes (1) when aggregation suppression score meets or exceeds it, else no (0).

{"Compound": "CC12CCC3C(=CCc4cc(O)ccc43)C1CCC2=O (stereo not drawn)", "Group Label": "no (0)"}
{"Compound": "O=C(O)CCCCC1SCC2NC(=O)NC21 (stereo not drawn)", "Group Label": "yes (1)"}
{"Compound": "CC(=O)O[C@@H]1CC2C(C)(C)C(=O)C=C[C@]2(C)C2CC[C@@]3(C)[C@H](c4ccoc4)OC(=O)[C@H]4O[C@]43[C@@]21C (stereo partly drawn)", "Group Label": "no (0)"}
{"Compound": "C[C@H](CCC(=O)O)[C@H]1CCC2C3C(=O)CC4CC(=O)CC[C@]4(C)C3CC(=O)[C@@]21C (stereo partly drawn)", "Group Label": "yes (1)"}
{"Compound": "CCOC(=O)OC(C)OC(=O)C1N2C(=O)C(NC(=O)[C@H](N)c3ccccc3)C2SC1(C)C (stereo partly drawn)", "Group Label": "yes (1)"}

Tell me whether aggregation suppression score is at least 0.7 here: CC(C)[C@@H]1CC[C@@H](C)C[C@H]1O
yes (1)

Tell me whether aggregation suppression score is at least 0.7 here: CC(=O)OCC(=O)[C@@]1(O)[C@H](C)CC2C3CCC4=CC(=O)C=C[C@]4(C)[C@@]3(F)[C@@H](O)C[C@@]21C (stereo partly drawn)
yes (1)

Tell me whether aggregation suppression score is at least 0.7 here: CC(=O)[C@H]1CCC2C3CCC4=CC(=O)CC[C@]4(C)C3CC[C@@]21C (stereo partly drawn)
no (0)

Tell me whether aggregation suppression score is at least 0.7 here: CN(C)CCCO[C@H]1[C@@H](C(O)CO)OC2OC(C)(C)O[C@@H]21 (stereo partly drawn)
yes (1)

Tell me whether aggregation suppression score is at least 0.7 here: CC1(C)O[C@@H]2CC3C4C[C@H](F)C5=CC(=O)C=CC5(C)C4C(O)CC3(C)[C@]2(C(=O)CO)O1 (stereo partly drawn)
yes (1)

Tell me whether aggregation suppression score is at least 0.7 here: CCCCC[C@H](CC(=O)NO)C(=O)N[C@H](C(=O)N1CCC[C@H]1CO)C(C)C
yes (1)

Tell me whether aggregation suppression score is at least 0.7 here: CC(=O)O[C@]1(C(C)=O)CCC2C3C[C@H](C)C4=CC(=O)CC[C@]4(C)C3CC[C@@]21C (stereo partly drawn)
no (0)

Tell me whether aggregation suppression score is at least 0.7 here: CC[C@H]1CN2CCc3cc(OC)c(OC)cc3C2C[C@@H]1CC1NCCc2cc(OC)c(OC)cc21 (stereo partly drawn)
yes (1)

Tell me whether aggregation suppression score is at least 0.7 here: CO[C@@]1(NC(=O)CSCC#N)C(=O)N2C(C(=O)O)=C(CSc3nnnn3C)CSC21 (stereo partly drawn)
yes (1)

Tell me whether aggregation suppression score is at least 0.7 here: CC(=O)OCC(=O)[C@H]1CCC2C3CCC4=CC(=O)CC[C@]4(C)C3CC[C@@]21C (stereo partly drawn)
no (0)

Tell me whether aggregation suppression score is at least 0.7 here: C[C@]12CCC3c4ccc(O)cc4CCC3C1CC[C@@H]2O (stereo partly drawn)
no (0)

Tell me whether aggregation suppression score is at least 0.7 here: C[C@]12CCC(=O)C=C1CCC1C2[C@@H](O)C[C@@]2(C)C1CC[C@]2(O)C(=O)CO (stereo partly drawn)
yes (1)

Tell me whether aggregation suppression score is at least 0.7 here: NC(Cc1ccc(F)cc1)C(=O)O (stereo not drawn)
yes (1)

Tell me whether aggregation suppression score is at least 0.7 here: NC[C@@H]1O[C@H](O[C@@H]2[C@@H](CO)OC(O[C@@H]3[C@@H](O)[C@H](N)C[C@H](N)[C@H]3OC3O[C@H](CN)[C@@H](O)[C@H](O)[C@H]3N)[C@@H]2O)[C@H](N)[C@@H](O)[C@@H]1O (stereo partly drawn)
yes (1)

Tell me whether aggregation suppression score is at least 0.7 here: CCC(C)C1NC(=O)C(CCNCS(=O)(=O)O)NC(=O)C(NC(=O)C(CCNCS(=O)(=O)O)NC(=O)C(NC(=O)C(CCNCS(=O)(=O)O)NC(=O)CCCCC(C)C)C(C)O)CCNC(=O)C(C(C)O)NC(=O)C(CCNCS(=O)(=O)O)NC(=O)C(CCNCS(=O)(=O)O)NC(=O)C(C(C)CC)NC1=O (stereo not drawn) ({Heptanoyl(6-Me)}-[ξDab(CH2SO3H)]T[ξDab(CH2SO3H)][Dab][ξDab(CH2SO3H)]II[ξDab(CH2SO3H)][ξDab(CH2SO3H)]T; lactam 4-C; configuration not given here)
no (0)

Tell me whether aggregation suppression score is at least 0.7 here: CCN1CCN(C(=O)NC(C(=O)N[C@@H]2C(=O)N3[C@@H]2SC(C)(C)[C@@H]3C(=O)O)c2ccccc2)C(=O)C1=O (stereo partly drawn)
yes (1)

Tell me whether aggregation suppression score is at least 0.7 here: NCCCCNCCCN
yes (1)

Tell me whether aggregation suppression score is at least 0.7 here: COC(=O)C1[C@H]2C[C@H]3c4[nH]c5ccccc5c4CCN3C[C@@H]2CC[C@@H]1O (stereo partly drawn)
yes (1)

Tell me whether aggregation suppression score is at least 0.7 here: CCN1CCN(C(=O)NC(C(=O)NC2C(=O)N3C(C(=O)O)=C(CSc4nnnn4C)CSC23)c2ccc(O)cc2)C(=O)C1=O (stereo not drawn)
yes (1)

Tell me whether aggregation suppression score is at least 0.7 here: C[C@]12C=CC(=O)C=C1CCC1C3C[C@@H](O)[C@](O)(C(=O)CO)[C@@]3(C)C[C@H](O)[C@@]12F (stereo partly drawn)
yes (1)

Tell me whether aggregation suppression score is at least 0.7 here: CC(C)[N+]1(C)C2CC[C@@H]1CC(OC(=O)C(CO)c1ccccc1)C2 (stereo partly drawn)
yes (1)

Tell me whether aggregation suppression score is at least 0.7 here: O=C1O[C@@H](CO)[C@H](O)[C@@H](O)[C@@H]1O
yes (1)

Tell me whether aggregation suppression score is at least 0.7 here: CC(=O)O[C@]1(C(C)=O)CCC2C3C=C(Cl)C4=CC(=O)[C@@H]5C[C@@H]5[C@]4(C)C3CC[C@@]21C (stereo partly drawn)
no (0)
